- system-name: Potassium-transporting ATPase (Canis familiaris)
- procedure-summary: Inhibitory activity against dog gastric proton-pump enzyme H+/K+ ATPase
outcome-measure: IC50 (µM)
Write the answer as a number in µM, unit excluded.

Worked examples, 4 compounds total:
Cc1sc(NC(=N)NCc2ccccc2)nc1-c1ccc(O)c(O)c1
1.3
CN(C)Cc1cc(-c2csc(N=C(N)N)n2)c[nH]1
9
COC(=O)c1ccc2[nH]cc(-c3csc(N=C(N)N)n3)c2c1
6.7
N=C(NCc1ccccc1)Nc1nc(-c2ccc[nH]2)cs1
9

Query block: What value of IC50 has been reported for the following compound? `Cc1[nH]ccc1-c1csc(N=C(N)N)n1`
Result block: 7

Query block: Item: `Cc1ccc(-c2csc(N=C(N)NCc3ccccc3)n2)[nH]1`
Result block: 7

Query block: Item: `COc1cccc(-c2csc(N=C(N)N)n2)c1`
Result block: 60

Query block: Item: `Cc1cc(-c2nc(NC(=N)NCc3ccccc3)sc2C)c[nH]1`
Result block: 7.9

Query block: Item: `N=C(N)Nc1nc(-c2cc3ccccc3[nH]2)cs1`
Result block: 14

* * *

- System: Potassium-transporting ATPase (Canis familiaris)
- procedure-summary: Percent inhibition of gastric proton-pump enzyme H+/K+ ATPase was determined at 50 uM
- condition-info: Canis lupus familiaris, Stomach
// values below are reported inhibition
Write the answer as a number in %, unit excluded.

Query block: What value of inhibition has been reported for the following compound? `Cc1cc(-c2nc(NC(=N)NCCc3ccccc3)sc2C)c[nH]1`
Result block: 87

Query block: Item: `Cc1cc(-c2csc(NC3=NCCN3C)n2)c[nH]1`
Result block: 13

Query block: Item: `CN(C)Cc1cccc(-c2csc(N=C(N)N)n2)c1`
Result block: 56

Query block: Item: `COc1ccc2[nH]cc(-c3csc(N=C(N)N)n3)c2c1`
Result block: 70

Query block: Item: `Cc1ccc(-c2csc(N=C(N)N)n2)cc1`
Result block: 61

Query block: Item: `Cc1ccc2c(-c3csc(NC(=N)NCc4ccccc4)n3)c[nH]c2c1`
Result block: 98

Query block: Item: `Cc1cc(-c2csc(N=C(N)N)n2)cn1S(=O)(=O)c1ccccc1`
Result block: 92

Query block: Item: `Cc1ccccc1-c1csc(NC(=N)NCc2ccccc2)n1`
Result block: 111

Query block: Item: `Cc1ccc(-c2csc(NC(=N)NCc3ccccc3)n2)cc1`
Result block: 16

* * *

// values below are reported inhibition
- System: Potassium-transporting ATPase (Canis familiaris)
- procedure-summary: Percent inhibition of gastric proton-pump enzyme H+/K+ ATPase was determined at 50 uM
- condition-info: Canis lupus familiaris, Stomach
Write the answer as a number in %, unit excluded.

Cc1ccc2c(-c3csc(N=C(N)N)n3)c[nH]c2c1.Cl
64
Cc1[nH]c2ccc(Cl)cc2c1-c1nc(NC(=N)NCc2ccccc2)sc1C
100

Query block: What value of inhibition has been reported for the following compound? `N=C(N)Nc1nc(-c2ccc(O)cc2)cs1`
Result block: 75

Query block: Item: `N=C(N)Nc1nc(-c2c[nH]c(C=O)c2)cs1`
Result block: 44

Query block: Item: `N=C(N)Nc1nc(-c2c[nH]c3ccc(OCc4ccccc4)cc23)cs1`
Result block: 78

Query block: Item: `Cc1cc(-c2csc(NC(=N)N3CCCCC3)n2)c[nH]1`
Result block: 34

Query block: Item: `Cc1sc(N=C(N)N)nc1-c1c[nH]c2ccccc12`
Result block: 92
